Method: Pharmacokinetics of WT-161 in CD-1 mice after intravenous administration (plasma, LC-MS/MS)
Type: in vivo
Condition Label: male, mouse; CD-1 mice, IV 5 mg/kg, plasma
Measured Quantity: AUC(0-inf) (ng·h/mL)

>>> readout_value("O=C(CCCCCCC(=O)N/N=C/c1ccc(N(c2ccccc2)c2ccccc2)cc1)NO [WT-161]")
3050

###

Method: Pharmacokinetics of WT-161 in CD-1 mice after intravenous administration (plasma, LC-MS/MS)
Format: in vivo
Condition Label: male, CD-1, mouse, plasma, iv, 5 mg/kg, CD-1 mice, IV 5 mg/kg; read-out: Cmax
Measured Quantity: Cmax (ng/mL)

>>> readout_value("O=C(CCCCCCC(=O)N/N=C/c1ccc(N(c2ccccc2)c2ccccc2)cc1)NO [WT-161]")
18700
